// reported PBM binding z-score per item
system: RARa:RXR (NR concentration 270 nM, RXRa partner concentration 90 nM); experiment: PBM binding z-score (relative to random genomic background probes); higher = stronger binding; sequences stand for … in GC…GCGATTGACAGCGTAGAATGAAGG
reported-metric: PBM binding z-score

[[record]]
primary_sequence = "CCTACTGGGCCATCAGGTCATTAATATCAACGTT"
subject_of_test = "RARa:RXR (NR concentration 270 nM, RXRa partner concentration 90 nM)"
result = 1.51

[[record]]
primary_sequence = "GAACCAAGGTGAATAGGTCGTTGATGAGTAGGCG"
subject_of_test = "RARa:RXR (NR concentration 270 nM, RXRa partner concentration 90 nM)"
result = 1.68

[[record]]
primary_sequence = "ACTAGTTGGTCAGCGGAGGTCACACACAATTCGG"
subject_of_test = "RARa:RXR (NR concentration 270 nM, RXRa partner concentration 90 nM)"
result = 4.46

[[record]]
primary_sequence = "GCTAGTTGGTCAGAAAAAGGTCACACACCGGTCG"
subject_of_test = "RARa:RXR (NR concentration 270 nM, RXRa partner concentration 90 nM)"
result = 5.62

[[record]]
primary_sequence = "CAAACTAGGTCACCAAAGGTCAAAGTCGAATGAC"
subject_of_test = "RARa:RXR (NR concentration 270 nM, RXRa partner concentration 90 nM)"
result = 7.52

[[record]]
primary_sequence = "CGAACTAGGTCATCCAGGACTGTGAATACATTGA"
subject_of_test = "RARa:RXR (NR concentration 270 nM, RXRa partner concentration 90 nM)"
result = 2.24

[[record]]
primary_sequence = "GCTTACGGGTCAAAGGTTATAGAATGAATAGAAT"
subject_of_test = "RARa:RXR (NR concentration 270 nM, RXRa partner concentration 90 nM)"
result = 8.42

[[record]]
primary_sequence = "TCTCGTAGGACACGAAAGGTCAGAGCTCGACATC"
subject_of_test = "RARa:RXR (NR concentration 270 nM, RXRa partner concentration 90 nM)"
result = 4.37

[[record]]
primary_sequence = "CCTTACGGGTCACTGACAGTTTATAGCATTTGGA"
subject_of_test = "RARa:RXR (NR concentration 270 nM, RXRa partner concentration 90 nM)"
result = 4.35

[[record]]
primary_sequence = "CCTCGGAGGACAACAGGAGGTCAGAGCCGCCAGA"
subject_of_test = "RARa:RXR (NR concentration 270 nM, RXRa partner concentration 90 nM)"
result = 1.99

[[record]]
primary_sequence = "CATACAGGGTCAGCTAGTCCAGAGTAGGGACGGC"
subject_of_test = "RARa:RXR (NR concentration 270 nM, RXRa partner concentration 90 nM)"
result = 2.91

[[record]]
primary_sequence = "TGAAAGAGGTTAAAGATCAGGGAACGTGGCGTCG"
subject_of_test = "RARa:RXR (NR concentration 270 nM, RXRa partner concentration 90 nM)"
result = 3.68

[[record]]
primary_sequence = "TCTAGTTGGTCACAGAGGTCACACACGACGGGTA"
subject_of_test = "RARa:RXR (NR concentration 270 nM, RXRa partner concentration 90 nM)"
result = 6.16

[[record]]
primary_sequence = "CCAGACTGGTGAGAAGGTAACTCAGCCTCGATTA"
subject_of_test = "RARa:RXR (NR concentration 270 nM, RXRa partner concentration 90 nM)"
result = -0.228

[[record]]
primary_sequence = "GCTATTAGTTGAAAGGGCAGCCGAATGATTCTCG"
subject_of_test = "RARa:RXR (NR concentration 270 nM, RXRa partner concentration 90 nM)"
result = 0.515

[[record]]
primary_sequence = "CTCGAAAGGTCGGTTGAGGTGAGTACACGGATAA"
subject_of_test = "RARa:RXR (NR concentration 270 nM, RXRa partner concentration 90 nM)"
result = 2.11

[[record]]
primary_sequence = "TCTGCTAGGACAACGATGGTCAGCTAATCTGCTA"
subject_of_test = "RARa:RXR (NR concentration 270 nM, RXRa partner concentration 90 nM)"
result = -0.497

[[record]]
primary_sequence = "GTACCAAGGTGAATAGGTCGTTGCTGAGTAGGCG"
subject_of_test = "RARa:RXR (NR concentration 270 nM, RXRa partner concentration 90 nM)"
result = 1.55

[[record]]
primary_sequence = "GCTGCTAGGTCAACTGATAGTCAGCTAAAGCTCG"
subject_of_test = "RARa:RXR (NR concentration 270 nM, RXRa partner concentration 90 nM)"
result = 2.13

[[record]]
primary_sequence = "ATCTCTAGGTAACCGAGTTCAGTGAATGCCGAAC"
subject_of_test = "RARa:RXR (NR concentration 270 nM, RXRa partner concentration 90 nM)"
result = 1.04

[[record]]
primary_sequence = "CAAACTAGGGCACGAAAGGTCAAAGTCGAATGAC"
subject_of_test = "RARa:RXR (NR concentration 270 nM, RXRa partner concentration 90 nM)"
result = 6.53

[[record]]
primary_sequence = "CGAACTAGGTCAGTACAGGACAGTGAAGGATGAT"
subject_of_test = "RARa:RXR (NR concentration 270 nM, RXRa partner concentration 90 nM)"
result = 0.671

[[record]]
primary_sequence = "CCTACTGGGCCACGGTCATTGATCAGTCAAAGCA"
subject_of_test = "RARa:RXR (NR concentration 270 nM, RXRa partner concentration 90 nM)"
result = -0.106

[[record]]
primary_sequence = "TCTCGGAGGACACGAAAGGTCACAGCTCGACATC"
subject_of_test = "RARa:RXR (NR concentration 270 nM, RXRa partner concentration 90 nM)"
result = 6

[[record]]
primary_sequence = "AGCTCTAGGTAAAGATAGTTCAGTGAATGCAAAT"
subject_of_test = "RARa:RXR (NR concentration 270 nM, RXRa partner concentration 90 nM)"
result = 0.3

[[record]]
primary_sequence = "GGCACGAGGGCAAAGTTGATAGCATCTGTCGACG"
subject_of_test = "RARa:RXR (NR concentration 270 nM, RXRa partner concentration 90 nM)"
result = 1.56

[[record]]
primary_sequence = "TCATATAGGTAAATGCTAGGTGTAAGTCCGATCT"
subject_of_test = "RARa:RXR (NR concentration 270 nM, RXRa partner concentration 90 nM)"
result = 0.00446

[[record]]
primary_sequence = "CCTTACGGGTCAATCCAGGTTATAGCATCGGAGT"
subject_of_test = "RARa:RXR (NR concentration 270 nM, RXRa partner concentration 90 nM)"
result = 3.74

[[record]]
primary_sequence = "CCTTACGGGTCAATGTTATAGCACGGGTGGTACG"
subject_of_test = "RARa:RXR (NR concentration 270 nM, RXRa partner concentration 90 nM)"
result = 3.35

[[record]]
primary_sequence = "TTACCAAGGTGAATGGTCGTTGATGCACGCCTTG"
subject_of_test = "RARa:RXR (NR concentration 270 nM, RXRa partner concentration 90 nM)"
result = 0.364

[[record]]
primary_sequence = "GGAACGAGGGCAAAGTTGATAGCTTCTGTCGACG"
subject_of_test = "RARa:RXR (NR concentration 270 nM, RXRa partner concentration 90 nM)"
result = 1.34

[[record]]
primary_sequence = "TCTATTAGTTGAAGAGCAACCGACGAGTCCGTTT"
subject_of_test = "RARa:RXR (NR concentration 270 nM, RXRa partner concentration 90 nM)"
result = -0.0573

[[record]]
primary_sequence = "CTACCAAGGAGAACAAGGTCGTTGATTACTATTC"
subject_of_test = "RARa:RXR (NR concentration 270 nM, RXRa partner concentration 90 nM)"
result = 1.17

[[record]]
primary_sequence = "ATCTCTAGGTAAAAGTTCACTGAATCCCGAGGAT"
subject_of_test = "RARa:RXR (NR concentration 270 nM, RXRa partner concentration 90 nM)"
result = 2.99

[[record]]
primary_sequence = "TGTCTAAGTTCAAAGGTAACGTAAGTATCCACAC"
subject_of_test = "RARa:RXR (NR concentration 270 nM, RXRa partner concentration 90 nM)"
result = 4.93

[[record]]
primary_sequence = "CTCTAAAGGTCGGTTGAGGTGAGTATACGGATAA"
subject_of_test = "RARa:RXR (NR concentration 270 nM, RXRa partner concentration 90 nM)"
result = 2.31

[[record]]
primary_sequence = "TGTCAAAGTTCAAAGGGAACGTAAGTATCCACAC"
subject_of_test = "RARa:RXR (NR concentration 270 nM, RXRa partner concentration 90 nM)"
result = 4.2

[[record]]
primary_sequence = "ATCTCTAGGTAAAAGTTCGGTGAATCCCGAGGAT"
subject_of_test = "RARa:RXR (NR concentration 270 nM, RXRa partner concentration 90 nM)"
result = 0.471

[[record]]
primary_sequence = "CCGGACAGGTGAAAGGTAACTCAGTCTGGTACGC"
subject_of_test = "RARa:RXR (NR concentration 270 nM, RXRa partner concentration 90 nM)"
result = 1.91

[[record]]
primary_sequence = "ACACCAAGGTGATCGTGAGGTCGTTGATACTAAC"
subject_of_test = "RARa:RXR (NR concentration 270 nM, RXRa partner concentration 90 nM)"
result = 2.18

[[record]]
primary_sequence = "ACTATTAGTTGACTTAGGGCAACTGATACGACGC"
subject_of_test = "RARa:RXR (NR concentration 270 nM, RXRa partner concentration 90 nM)"
result = 0.431

[[record]]
primary_sequence = "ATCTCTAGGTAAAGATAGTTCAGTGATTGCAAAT"
subject_of_test = "RARa:RXR (NR concentration 270 nM, RXRa partner concentration 90 nM)"
result = 0.722

[[record]]
primary_sequence = "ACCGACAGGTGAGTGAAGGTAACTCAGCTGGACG"
subject_of_test = "RARa:RXR (NR concentration 270 nM, RXRa partner concentration 90 nM)"
result = -0.0449

[[record]]
primary_sequence = "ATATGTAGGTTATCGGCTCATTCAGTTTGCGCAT"
subject_of_test = "RARa:RXR (NR concentration 270 nM, RXRa partner concentration 90 nM)"
result = 0.31

[[record]]
primary_sequence = "ACTTACGGGTCAACGAGGTTATGGCACGCGTATA"
subject_of_test = "RARa:RXR (NR concentration 270 nM, RXRa partner concentration 90 nM)"
result = 5.52

[[record]]
primary_sequence = "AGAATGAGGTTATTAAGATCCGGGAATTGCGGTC"
subject_of_test = "RARa:RXR (NR concentration 270 nM, RXRa partner concentration 90 nM)"
result = 1.28

[[record]]
primary_sequence = "TAGTCTAGGTCATTCAGGGGCCAGTATAGAAAGC"
subject_of_test = "RARa:RXR (NR concentration 270 nM, RXRa partner concentration 90 nM)"
result = 3.32

[[record]]
primary_sequence = "CAAACTAGGTCAAAGAGGTCAAAGTCCGTGCGTA"
subject_of_test = "RARa:RXR (NR concentration 270 nM, RXRa partner concentration 90 nM)"
result = 6.42

[[record]]
primary_sequence = "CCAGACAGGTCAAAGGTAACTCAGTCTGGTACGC"
subject_of_test = "RARa:RXR (NR concentration 270 nM, RXRa partner concentration 90 nM)"
result = 6.08

[[record]]
primary_sequence = "CCGACTGGGGCATAAGGTTAACATAAGCCAGCCC"
subject_of_test = "RARa:RXR (NR concentration 270 nM, RXRa partner concentration 90 nM)"
result = 1.51

[[record]]
primary_sequence = "AGTCAAAGTTCACTAGGTACCGTAAGATTCAGCT"
subject_of_test = "RARa:RXR (NR concentration 270 nM, RXRa partner concentration 90 nM)"
result = 2.9


Source: the supplement of paper PMC6555819
